Test: Cellular toxicity in CEM-SS cells (XTT assay)
Format: cell-based
Settings: human
REPORTED PROPERTY: CC50 at 144 h

Data request: Return reported CC50 at 144 h; argument: Cc1cn([C@H]2C[C@H](N=[N+]=[N-])[C@@H](CO)O2)c(=O)[nH]c1=O [AZT]
Data returned: > 500 µg/mL

====

Assay: Drug-induced cytotoxicity against MDCK cells without viral infection (dye-uptake assay)
Conditions: dog, mdck cells, TD50 Influenza virus-MDCK cell, Table 10; 50% cytotoxicity against MDCK cells without viral infection
REPORTED PROPERTY: CC50 at 72 h

Data request: Return reported CC50 at 72 h; argument: NC(=O)c1ncn([C@@H]2O[C@H](CO)[C@@H](O)[C@H]2O)n1 [Ribavirin, reference compound]
Data returned: > 100 µg/mL

====

Assay: in vitro
Details: monkey, vero cells
REPORTED PROPERTY: CC50 at 72 h

Data request: Return reported CC50 at 72 h; argument: Nc1nc2c(ncn2COCCO)c(=O)[nH]1
Data returned: > 100 µg/mL
